Assay: protein stability index of a GFP-peptide fusion (GPS, HEK-293T) (PSI 1-6); higher = more stable;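 also: 24-mer peptide tiles fused after GFP, lentivirally expressed, FACS-sorted into six equal bins by GFP/DsRed ratio, decoded by Illumina sequencing, PSI is the read-weighted mean bin number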
Conditions: treatment: MLN4924 1 uM, 8 h; c terminus: a fixed tail appended
Decision: protein stability index >= 3 yields YES, all other cases yield NO.

| Sequence String | Class Name |
| --- | --- |
| VPWLNLKKQDENEGIKVEDLLFIV [CEP70] | NO |
| VIAINYNEKIYELRVMETKPDKAV [UFD1] | NO |
| SNIDKKFSAHYDAVEAELKSSTVG [FAM50A] | YES |
| IELDRTIMPDGTIVTTVTTVQSRP [C2CD2L] | NO |

Check the entry SEDTLTIHGLPTEGYQALYHAVVE [C22orf31] : does protein stability index equal or exceed 3?
YES

Check the entry GRSREELDELTGEVAGGGTPLLIA [FEM1A] : does protein stability index equal or exceed 3?
YES

Check the entry LTFLTKQEILLAHRRFCELLPQEQ [CIB1] : does protein stability index equal or exceed 3?
NO
